assay: Tissue distribution of UCN-01 in rats, effect of human AGP; assay type: in vivo, male Wistar rats; conditions: rat, brain, iv, 10 mg/kg, brain; UCN-01 alone, 1 h; read-out: Tissue/Plasma ratio
VALUE TYPE: Kp at 1 h

>>> assay_result("CN[C@@H]1C[C@H]2O[C@@](C)([C@@H]1OC)n1c3ccccc3c3c4c(c5c6ccccc6n2c5c31)C(=O)N[C@@H]4O [UCN-01, 7-hydroxystaurosporine]")
10.5

###

Experiment: Tissue distribution of UCN-01 in rats, effect of human AGP
Assay type: in vivo, male Wistar rats
Details: rat, liver, iv, 10 mg/kg, liver; UCN-01 10 mg/kg alone, 1 h; read-out: tissue concentration
Description: The role of human AGP binding on the tissue distribution of UCN-01. In this study, two groups of rats (n=3) were infused with bolus injection of either UCN-01 (10 mg/kg) or UCN-01+ human AGP (10 mg/kg +10 mg). On hour following drug administration, plasma samples as well as organ tissues (brain, muscle, kidneys, lungs, liver, heart and spleen) were collected. […] The organic phase was then dried under nitrogen, reconstituted in acetonitrile and analyzed by HPLC as mentioned above.
VALUE TYPE: concentration at 1 h (ng/g)

>>> assay_result("CN[C@@H]1C[C@H]2O[C@@](C)([C@@H]1OC)n1c3ccccc3c3c4c(c5c6ccccc6n2c5c31)C(=O)N[C@@H]4O [UCN-01, 7-hydroxystaurosporine]")
42900

###

assay: Tissue distribution of UCN-01 in rats, effect of human AGP; format: in vivo, male Wistar rats; settings: rat, plasma, iv, 10 mg/kg, plasma; UCN-01 10 mg/kg + human AGP 10 mg, 1 h; mean ± SD, n=3; read-out: plasma concentration
VALUE TYPE: concentration at 1 h (ng/mL)

>>> assay_result("CN[C@@H]1C[C@H]2O[C@@](C)([C@@H]1OC)n1c3ccccc3c3c4c(c5c6ccccc6n2c5c31)C(=O)N[C@@H]4O [UCN-01, 7-hydroxystaurosporine]")
2960

###

# IC50 per record follows
tested on: MDA-231 (mutant p53); experiment: Crystal violet staining growth inhibition assay, median effect analysis; settings: Homo sapiens, MDA-MB-231, 24 h, read-out: IC50 MDA-231 (p53-)
VALUE TYPE: IC50 (µM)

>>> assay_result("CN[C@@H]1C[C@H]2O[C@@](C)([C@@H]1OC)n1c3ccccc3c3c4c(c5c6ccccc6n2c5c31)C(=O)N[C@@H]4O [UCN-01, 7-hydroxystaurosporine]")
0.0496
>>> assay_result("CC[C@@]1(O)C(=O)OCc2c1cc1n(c2=O)Cc2cc3c(CN(C)C)c(O)ccc3nc2-1")
0.037

###

assay: Tissue distribution of UCN-01 in rats, effect of human AGP; assay type: in vivo, male Wistar rats; conditions: rat, lung, iv, 10 mg/kg, lung; UCN-01 + human AGP, 1 h; read-out: tissue concentration
VALUE TYPE: concentration at 1 h (ng/g)

>>> assay_result("CN[C@@H]1C[C@H]2O[C@@](C)([C@@H]1OC)n1c3ccccc3c3c4c(c5c6ccccc6n2c5c31)C(=O)N[C@@H]4O [UCN-01, 7-hydroxystaurosporine]")
141000

###

assay: Tissue distribution of UCN-01 in rats, effect of human AGP; type: in vivo, male Wistar rats; conditions: rat, brain, iv, 10 mg/kg, brain; UCN-01 + human AGP, 1 h; read-out: Tissue/Plasma ratio
VALUE TYPE: Kp at 1 h

>>> assay_result("CN[C@@H]1C[C@H]2O[C@@](C)([C@@H]1OC)n1c3ccccc3c3c4c(c5c6ccccc6n2c5c31)C(=O)N[C@@H]4O [UCN-01, 7-hydroxystaurosporine]")
0.6

###

assay: Tissue distribution of UCN-01 in rats, effect of human AGP; format: in vivo, male Wistar rats; details: rat, spleen, iv, 10 mg/kg, spleen; UCN-01 + human AGP, 1 h; read-out: Tissue/Plasma ratio
VALUE TYPE: Kp at 1 h

>>> assay_result("CN[C@@H]1C[C@H]2O[C@@](C)([C@@H]1OC)n1c3ccccc3c3c4c(c5c6ccccc6n2c5c31)C(=O)N[C@@H]4O [UCN-01, 7-hydroxystaurosporine]")
19.6

###

Test: Tissue distribution of UCN-01 in rats, effect of human AGP
Format: in vivo, male Wistar rats
Details: rat, heart, iv, 10 mg/kg, heart; UCN-01 + human AGP, 1 h; read-out: Tissue/Plasma ratio
Method: The role of human AGP binding on the tissue distribution of UCN-01. In this study, two groups of rats (n=3) were infused with bolus injection of either UCN-01 (10 mg/kg) or UCN-01+ human AGP (10 mg/kg +10 mg). On hour following drug administration, plasma samples as well as organ tissues (brain, muscle, kidneys, lungs, liver, heart and spleen) were collected. […] The organic phase was then dried under nitrogen, reconstituted in acetonitrile and analyzed by HPLC as mentioned above.
VALUE TYPE: Kp at 1 h

>>> assay_result("CN[C@@H]1C[C@H]2O[C@@](C)([C@@H]1OC)n1c3ccccc3c3c4c(c5c6ccccc6n2c5c31)C(=O)N[C@@H]4O [UCN-01, 7-hydroxystaurosporine]")
3.5

###

system: HMEC (p53+); test: Crystal violet staining growth inhibition assay, median effect analysis; details: Homo sapiens, 24 h, read-out: IC50 HMEC (p53+)
Consider the following compounds and their measured IC50 readings.
VALUE TYPE: IC50 (nM)

>>> assay_result("CN[C@@H]1C[C@H]2O[C@@](C)([C@@H]1OC)n1c3ccccc3c3c4c(c5c6ccccc6n2c5c31)C(=O)N[C@@H]4O [UCN-01, 7-hydroxystaurosporine]")
0.07
>>> assay_result("CC[C@@]1(O)C(=O)OCc2c1cc1n(c2=O)Cc2cc3c(CN(C)C)c(O)ccc3nc2-1")
6

###

test: Tissue distribution of UCN-01 in rats, effect of human AGP; assay type: in vivo, male Wistar rats; settings: rat, spleen, iv, 10 mg/kg, spleen; UCN-01 10 mg/kg alone, 1 h; read-out: tissue concentration
VALUE TYPE: concentration at 1 h (ng/g)

>>> assay_result("CN[C@@H]1C[C@H]2O[C@@](C)([C@@H]1OC)n1c3ccccc3c3c4c(c5c6ccccc6n2c5c31)C(=O)N[C@@H]4O [UCN-01, 7-hydroxystaurosporine]")
74900

###

assay: Tissue distribution of UCN-01 in rats, effect of human AGP; assay type: in vivo, male Wistar rats; conditions: rat, muscle, iv, 10 mg/kg, muscle; UCN-01 10 mg/kg alone, 1 h; read-out: tissue concentration
VALUE TYPE: concentration at 1 h (ng/g)

>>> assay_result("CN[C@@H]1C[C@H]2O[C@@](C)([C@@H]1OC)n1c3ccccc3c3c4c(c5c6ccccc6n2c5c31)C(=O)N[C@@H]4O [UCN-01, 7-hydroxystaurosporine]")
11900

###

assay: Tissue distribution of UCN-01 in rats, effect of human AGP; type: in vivo, male Wistar rats; details: rat, heart, iv, 10 mg/kg, heart; UCN-01 + human AGP, 1 h; read-out: tissue concentration
VALUE TYPE: concentration at 1 h

>>> assay_result("CN[C@@H]1C[C@H]2O[C@@](C)([C@@H]1OC)n1c3ccccc3c3c4c(c5c6ccccc6n2c5c31)C(=O)N[C@@H]4O [UCN-01, 7-hydroxystaurosporine]")
"10100 ng/g"

###

assay: UCN-01 pharmacokinetics in rats, effect of human AGP; type: in vivo, male Wistar rats; conditions: rat, plasma, iv, 10 mg/kg, UCN-01 10 mg/kg i.v. + 10 mg human AGP; read-out: total body clearance (converted)
VALUE TYPE: clearance

>>> assay_result("CN[C@@H]1C[C@H]2O[C@@](C)([C@@H]1OC)n1c3ccccc3c3c4c(c5c6ccccc6n2c5c31)C(=O)N[C@@H]4O [UCN-01, 7-hydroxystaurosporine]")
"1.5 mL/min"

###

assay: Tissue distribution of UCN-01 in rats, effect of human AGP; assay type: in vivo, male Wistar rats; conditions: rat, brain, iv, 10 mg/kg, brain; UCN-01 + human AGP, 1 h; read-out: tissue concentration
VALUE TYPE: concentration at 1 h (ng/g)

>>> assay_result("CN[C@@H]1C[C@H]2O[C@@](C)([C@@H]1OC)n1c3ccccc3c3c4c(c5c6ccccc6n2c5c31)C(=O)N[C@@H]4O [UCN-01, 7-hydroxystaurosporine]")
1720

###

assay: in vivo; conditions: rat, plasma, iv, 10 mg/kg
VALUE TYPE: half-life (h)

>>> assay_result("CC[C@@]1(O)C(=O)OCc2c1cc1n(c2=O)Cc2cc3c(CN(C)C)c(O)ccc3nc2-1")
1.53

###

experiment: UCN-01 pharmacokinetics in rats, effect of human AGP; format: in vivo, male Wistar rats; conditions: rat, plasma, iv, 10 mg/kg, UCN-01 10 mg/kg i.v. alone; read-out: total body clearance (converted)
VALUE TYPE: clearance (mL/min)

>>> assay_result("CN[C@@H]1C[C@H]2O[C@@](C)([C@@H]1OC)n1c3ccccc3c3c4c(c5c6ccccc6n2c5c31)C(=O)N[C@@H]4O [UCN-01, 7-hydroxystaurosporine]")
4.33
